Experiment: Biodistribution of 14C-CA4P following periocular injection
Assay type: in vivo, New Zealand rabbits
Conditions: sclera; 100 mg/ml periocular
parameter.measured: Cmax (µM)
Give bare numbers, in µM.

Field Cmax (entry COc1ccc(/C=C\c2cc(OC)c(OC)c(OC)c2)cc1OP(=O)([O-])[O-].[Na+].[Na+] [CA4P, combretastatin A4 disodium phosphate] ) reads 3370

* * *

Experiment: Biodistribution of 14C-CA4P following subconjunctival injection
Assay type: in vivo, New Zealand rabbits
Conditions: choroid; 0.1 mg/ml subconjunctival
parameter.measured: Cmax
Param answer (str): number followed by unit.

Just so you know, measured Cmax for COc1ccc(/C=C\c2cc(OC)c(OC)c(OC)c2)cc1OP(=O)([O-])[O-].[Na+].[Na+] [CA4P, combretastatin A4 disodium phosphate] came out at 2300 nM

* * *

Assay: Biodistribution of 14C-CA4P following sub-Tenon's injection
Format: in vivo, New Zealand rabbits
Conditions: retina; 10 mg/ml sub-Tenon's
parameter.measured: Cmax
Hi, when you answer, please include the unit after the number. Thanks!

COc1ccc(/C=C\c2cc(OC)c(OC)c(OC)c2)cc1OP(=O)([O-])[O-].[Na+].[Na+] [CA4P, combretastatin A4 disodium phosphate] has a reported Cmax of 7.1 µM

* * *

Assay: Biodistribution of 14C-CA4P following topical administration of a solution formulation
Type: in vivo, New Zealand rabbits
Conditions: choroid; 3% topical solution
parameter.measured: Cmax (nM)
One number for each entry, in nM.

Summary for this compound, COc1ccc(/C=C\c2cc(OC)c(OC)c(OC)c2)cc1OP(=O)([O-])[O-].[Na+].[Na+] [CA4P, combretastatin A4 disodium phosphate] : Cmax is 1900

* * *

Test: Biodistribution of 14C-CA4P following sub-Tenon's injection
Type: in vivo, New Zealand rabbits
Settings: choroid; 100 mg/ml sub-Tenon's
Description: ^14C-CA4P (OXiGENE Inc., Watertown, Mass.) was resuspended in 100 ul volume of saline solution and injected with a 30 G needle into the right eyes of anesthesized male New Zealand rabbits (4 months old, 1.8-2.5 kg, n=3 per sample). Three different concentrations of ^14C-CA4P were tested (1, 10, 100 mg/ml) corresponding to doses of 1, 5, and 5 uCi of applied radioactivity respectively. A blank control group was also included. Rabbits were anaesthetized at 1, 6, 24, and 48 hours for blood sampling. […]
parameter.measured: Cmax (µM)
One number for each entry, in µM.

Reported Cmax of COc1ccc(/C=C\c2cc(OC)c(OC)c(OC)c2)cc1OP(=O)([O-])[O-].[Na+].[Na+] [CA4P, combretastatin A4 disodium phosphate] : 861

* * *

Test: Biodistribution of 14C-CA4P following periocular injection
Type: in vivo, New Zealand rabbits
Details: retina; 100 mg/ml periocular
parameter.measured: Cmax (µM)
Numbers only, in µM.

Entry under test: COc1ccc(/C=C\c2cc(OC)c(OC)c(OC)c2)cc1OP(=O)([O-])[O-].[Na+].[Na+] [CA4P, combretastatin A4 disodium phosphate] . Its Cmax was 169

* * *

Experiment: Biodistribution of 14C-CA4P following topical administration of a gel
Format: in vivo, New Zealand rabbits
Conditions: retina; 3% topical gel
parameter.measured: Cmax (µM)
One number for each entry, in µM.

Recorded Cmax (molecule COc1ccc(/C=C\c2cc(OC)c(OC)c(OC)c2)cc1OP(=O)([O-])[O-].[Na+].[Na+] [CA4P, combretastatin A4 disodium phosphate] ): 5.8
